Data origin: ChEMBL document CHEMBL5143660

Each entry below carries its reported Kd.
- ASSAY_TARGET: Receptor-interacting serine/threonine-protein kinase 1 (Homo sapiens, UniProt Q13546)
- Sequence (Q13546 whole entry): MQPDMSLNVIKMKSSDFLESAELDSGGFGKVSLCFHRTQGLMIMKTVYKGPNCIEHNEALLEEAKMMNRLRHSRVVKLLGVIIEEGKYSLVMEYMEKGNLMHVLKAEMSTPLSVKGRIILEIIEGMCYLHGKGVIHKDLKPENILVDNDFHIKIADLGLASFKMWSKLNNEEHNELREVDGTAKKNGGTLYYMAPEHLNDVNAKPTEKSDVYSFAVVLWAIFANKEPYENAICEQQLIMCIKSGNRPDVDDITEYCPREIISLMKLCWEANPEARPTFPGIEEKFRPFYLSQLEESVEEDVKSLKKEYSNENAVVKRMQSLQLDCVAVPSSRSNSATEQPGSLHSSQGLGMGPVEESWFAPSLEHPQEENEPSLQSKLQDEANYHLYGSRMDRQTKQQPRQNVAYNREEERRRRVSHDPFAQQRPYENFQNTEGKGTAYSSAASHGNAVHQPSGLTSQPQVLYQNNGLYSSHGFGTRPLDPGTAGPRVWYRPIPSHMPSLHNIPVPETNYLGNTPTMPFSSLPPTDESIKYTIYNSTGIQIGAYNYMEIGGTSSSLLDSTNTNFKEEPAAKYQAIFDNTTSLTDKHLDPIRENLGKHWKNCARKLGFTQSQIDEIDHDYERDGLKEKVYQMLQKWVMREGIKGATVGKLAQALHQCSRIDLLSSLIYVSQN

Here are 2 molecules together with their reported answers.
                         chemical_structure  outcome_measure  observed_measurement
0  CN1C(=S)[C@@H](NC(=O)c2nc(Cc3ccccc3)n(C3CCC3)n2)COc2ccccc21               Kd                301 nM
1  CN1C(=S)[C@@H](NC(=O)c2nc(Cc3ccccc3)n(CCF)n2)COc2ccccc21               Kd                 60 nM

# evaluate next
Tell me the measured Kd of `CN1C(=S)[C@@H](NC(=O)c2nc(Cc3ccccc3)n(C)n2)COc2ccccc21` , please.
31 nM

* * *

- ASSAY: Cytotoxicity against human HT-29 cells assessed as reduction in cell viability
- Format: toxicity, cell-based
# CC50 per record follows

Solved cases (7 shown):
In [3]: df
Out[3]:
                                   compound  outcome_measure  observed_measurement
0  CN1C(=S)[C@@H](NC(=O)c2nc(Cc3ccccc3)n(C3CCCCC3)n2)COc2ccccc21             CC50              > 100 µM
1  CN1C(=S)[C@@H](NC(=O)c2nc(Cc3ccccc3)n(CC(F)(F)F)n2)COc2ccccc21             CC50              > 100 µM
2  CN1C(=S)[C@@H](NC(=O)c2nc(Cc3ccccc3)n(C3CCN(C(=O)OC(C)(C)C)CC3)n2)COc2ccccc21             CC50              > 100 µM
3  CN1C(=S)[C@@H](NC(=O)c2nc(Cc3ccccc3)n(C)n2)COc2ccccc21             CC50              > 100 µM
4  CN1C(=S)[C@@H](NC(=O)c2nc(Cc3ccccc3)n(C3CCC3)n2)COc2ccccc21             CC50              > 100 µM
5  CCCCn1nc(C(=O)N[C@H]2COc3ccccc3N(C)C2=S)nc1Cc1ccccc1             CC50              > 100 µM
6  CN1C(=S)[C@@H](NC(=O)c2nc(Cc3ccccc3)n(C3COC3)n2)COc2ccccc21             CC50              > 100 µM

Please turn your attention to the following entry.
Entry CN1C(=S)[C@@H](NC(=O)c2nc(Cc3ccccc3)n(C3CCN(C(=O)OC(C)(C)C)C3)n2)COc2ccccc21 (stereo partly drawn) : reported CC50 = ?
> 100 µM
